B1: POU domain, class 3, transcription factor 4, residues 280 to 335; numbered along this chain, P49335 (parent)
chain: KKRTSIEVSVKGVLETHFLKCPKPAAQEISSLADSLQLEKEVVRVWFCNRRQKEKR

Variants of: B1
method: abundance fitness (aPCA) (normalised: wild type 0, dead -1); higher = more abundant; growth selection in yeast, the domain comes from the species named
run-parameters: Homo sapiens
Measured abundance fitness, listed per entry for reference.
# print the numeric value only

Examples with answers:
variant-name: T4E
observed-value: 0.034
//
variant-name: T4K
observed-value: 0.011
//
variant-name: V13A
observed-value: -0.082
//
variant-name: A26W
observed-value: -0.05
//
variant-name: R56L
observed-value: -0.075

Challenge: Fill in: abundance fitness of R51K is ___
Response given: -1.04

Challenge: Consider the variant shown here: K40S What is its recorded abundance fitness?
Response given: -0.188

Challenge: What value of abundance fitness has been reported for the following variant? C21L
Response given: -0.419

Challenge: Any idea what its abundance fitness is? The variant is E41N
Response given: -0.189

Challenge: Query (variant): R51T ; field requested: abundance fitness
Response given: -0.848

Challenge: Please look up its abundance fitness: C21K
Response given: -0.725

Challenge: I'd like to know its abundance fitness. The variant in question is N49P
Response given: -0.724

Challenge: I am curious: what abundance fitness value has been reported for C21E ?
Response given: -0.546

Challenge: Please report the recorded abundance fitness for L19E .
Response given: -0.391

Challenge: Would you kindly share the measured abundance fitness for E28N ?
Response given: -0.123

Challenge: Any idea what its abundance fitness is? The variant is L38I
Response given: 0.048

Challenge: Look up abundance fitness for this variant: C21A
Response given: -0.756

Challenge: Could you share which abundance fitness value was measured for A25T ?
Response given: 0.495

Challenge: State the recorded abundance fitness for this entry: K20A
Response given: -0.339

Challenge: # lookup: abundance fitness of C21T
Response given: -0.336

Challenge: Any idea what abundance fitness was measured for R51G ?
Response given: -0.804

Challenge: So what's the measured abundance fitness for this one? V45Y
Response given: -0.372
